test system: CAKI-1; assay: NCI tumour cell line growth inhibition, 48 h
Calls of active or inactive are those of the source. Cut-off read from the data, not from the text of the source: active = GI50 up to about 1.1 µM and inactive = higher.
quantity: GI50

In the examples that follow, each entry is paired with its recorded GI50.
{"compound": "Cn1c(=O)c2[nH]c(/N=N/N3CCN(CCO)CC3)nc2n(C)c1=O", "GI50": "> 100 µM (inactive)"}
{"compound": "ClC(/N=N/c1ccccc1)=N/Nc1ccccc1", "GI50": "33.6 µM (inactive)"}
{"compound": "COC1OC2COC1(OC)C1OC(C)(C)OC21 (stereo not given)", "GI50": "> 100 µM (inactive)"}
{"compound": "COc1nc2c(N3CCCC3)nc(N3CCNCC3)nc2nc1NCc1ccccc1", "GI50": "2.38 µM (inactive)"}
{"compound": "COc1ccc(/C=C2\\Sc3nnc(-c4ccccc4)n3N=C2c2cc(F)c(Cl)cc2Cl)cc1OC", "GI50": "31 µM (inactive)"}

Quick request: GI50 for each listed item, please.
1. NS(=O)(=O)c1cc2c(cc1Cl)N=C(CCC(=O)O)NS2(=O)=O
2. O=C(CCCN1CCC(C(O)c2ccc(F)cc2)CC1)c1ccc(F)cc1 (stereo not given)
3. O=C(O)C(=C\c1ccc2c(c1)OCO2)/C(=C/c1ccc2c(c1)OCO2)C(=O)O
4. COC(=O)C1CC(C(=O)OC)c2nc3cc(C)ccc3nc21 (stereo not given)
5. CC1(C)[C@H](C(=O)O)N2C(=O)[C@@H](NS(=O)(=O)c3ccc([N+](=O)[O-])cc3)[C@H]2S1(=O)=O

stdout:
["> 100 µM (inactive)", "53.7 µM (inactive)", "> 100 µM (inactive)", "> 100 µM (inactive)", "> 100 µM (inactive)"]

====

tested on: HOP-62; experiment: NCI tumour cell line growth inhibition, 48 h
Calls of active or inactive are those of the source. No stated cut-off is given here; in the data, active = GI50 up to about 1.1 µM and inactive = higher.
quantity: GI50

The cases that follow already have their GI50 on record.
{"compound": "CN1CCN(C(=O)CCC(=O)Nc2cc3c(c4ccccc24)-c2ccc4ccccc4c2C3)CC1", "tested_on": "HOP-62", "GI50": "1.69 µM (inactive)"}
{"compound": "CCOP(=O)(OCC)/C(C#N)=C\\c1cccc2ccccc12", "tested_on": "HOP-62", "GI50": "> 56.6 µM (inactive)"}
{"compound": "COc1ccc2c(Cc3c4ccccc4cc4ccccc34)cncc2c1O", "tested_on": "HOP-62", "GI50": "4.11 µM (inactive)"}
{"compound": "COC(=O)CC1(O)C(/C=C/c2ccccc2)C(C(=O)OC)C(=O)C(C(=O)OC)C1C(=O)OC (stereo not given)", "tested_on": "HOP-62", "GI50": "> 100 µM (inactive)"}
{"compound": "CN(C)CC(CO)(CN(C)C)CN(C)C", "tested_on": "HOP-62", "GI50": "> 100 µM (inactive)"}
{"compound": "COCC1OC(N2C(=O)NC(=O)[C@@H]3C=C4CCCCC4=C[C@@H]32)C(OC)C1OC (stereo not given in full)", "tested_on": "HOP-62", "GI50": "> 100 µM (inactive)"}

Need GI50 for each of these compounds.
1. COc1c(CC(C)O)c2c3c(CC(C)O)c(OC)c(=O)c4c(O)cc5c(c6c(cc(O)c(c1=O)c62)OCO5)c43 (stereo not given)
2. COC(=O)c1ccccc1C1CN=NC12Cc1c(C)cccc1C2=O (stereo not given)
3. NCc1ccc(C(=O)O)cc1
4. COC(=O)C(C(=O)C(=O)Nc1nc2ccc([N+](=O)[O-])cc2s1)c1nc2ccc(Cl)cc2nc1O (stereo not given)

stdout:
1.99 µM (inactive)
> 100 µM (inactive)
> 100 µM (inactive)
> 100 µM (inactive)

Record GI50 per entry; entries follow.
1. O=C(c1nc2ccc([N+](=O)[O-])cc2nc1O)C(O)c1ccc2c(c1)OCO2 (stereo not given)
2. COC(=O)C1=C(C(=O)OC)SC(=C2S[C@@H]3[C@@H]4C[C@H]([C@@H]3S2)[C@H]2C(=O)OC(=O)[C@@H]42)S1
3. O=C(/C=C/c1ccc(OCCSCCCCCCCCCCSCCOc2ccc(/C=C/C(=O)c3ccc(Cl)cc3)cc2)cc1)c1ccc(Cl)cc1

stdout:
> 100 µM (inactive)
> 100 µM (inactive)
51.2 µM (inactive)

Hi, could you look up GI50 for each item in my list?
1. Cc1ccc(C2(O)c3ccccc3C(=O)N(C)C2(O)c2ccc(C)cc2)cc1 (stereo not given)
2. Cc1ccc(NC(=O)CCC(CC(=O)C(C)(C)C)=NNC(=O)C(=O)NN)cc1C
3. O=C1C=CC(=O)c2c1cc1ccccc1c2O
4. CCSC1=N/C(=C\c2ccco2)C(Cl)=N1
5. CC(=O)OCC1OC(n2c3c(c(-c4ccc(Cl)cc4)c(C#N)c2=S)CCCC3)C(OC(C)=O)C(OC(C)=O)C1OC(C)=O (stereo not given)
6. CCC(CC)n1c(C)nc2c1C(=O)c1ccccc1C2=O

stdout:
1: 22 µM (inactive); 2: > 100 µM (inactive); 3: 16.7 µM (inactive); 4: > 100 µM (inactive); 5: 97.3 µM (inactive); 6: 33.4 µM (inactive)

Item: COc1ccc(P2(=S)OC(C)(C)C(C)(C)O2)cc1 | System: HOP-62 | GI50: > 100 µM (inactive)

====

Hi there, I'd appreciate the recorded GI50 for every entry that follows.
system: M14; assay: NCI tumour cell line growth inhibition, 48 h
The source made the active and inactive calls. Cut-off read from the data, not from the text of the source: active = GI50 up to about 1.1 µM and inactive = higher.

{"compound": "CC(C)CNc1nc2ncnc(N)c2[nH]1", "tested_on": "M14", "test_result": "> 100 µM (inactive)"}
{"compound": "COC1OC2COC1(OC)C1OC(C)(C)OC21 (stereo unspecified)", "tested_on": "M14", "test_result": "> 100 µM (inactive)"}
{"compound": "CCCCCCCCCCCCn1[nH]c(C)c(C(=S)SCCCCCCCC)c1=O", "tested_on": "M14", "test_result": "56.1 µM (inactive)"}
{"compound": "CN1C2CCC1C(C(O)c1ccccc1[N+](=O)[O-])C(=O)C2 (stereo unspecified)", "tested_on": "M14", "test_result": "35.2 µM (inactive)"}
{"compound": "Cc1ccc2ccc(=O)oc2c1", "tested_on": "M14", "test_result": "> 100 µM (inactive)"}
{"compound": "CC(C)CC(NC(=O)OC(C)(C)C)C(=O)Nc1ccc(Nc2nc(F)nc(-c3c4ccccc4cn3C)n2)cc1 (stereo unspecified)", "tested_on": "M14", "test_result": "> 100 µM (inactive)"}

Could you report GI50 for every entry in the following list?
1. Cc1csc(CCC(N)C(=O)O)n1 (stereo unspecified)
2. COc1ccc(P2(=S)OC(C)(C)C(C)(C)O2)cc1
3. CC(C)N/C(=N\C#N)NS(=O)(=O)c1cnccc1Nc1ccc(Cl)cc1

stdout:
1. > 100 µM (inactive)
2. > 100 µM (inactive)
3. > 100 µM (inactive)

# batch size: 2; output GI50 per entry
1. CC1(C)[C@H](C(=O)O)N2C(=O)[C@@H](NS(=O)(=O)c3ccc([N+](=O)[O-])cc3)[C@H]2S1(=O)=O
2. Cc1c[nH]c(C(=O)O)c1-c1cccn1-c1ccc(Cl)cc1[N+](=O)[O-]

stdout:
["> 100 µM (inactive)", "> 100 µM (inactive)"]

====

tested on: UACC-257; test: NCI tumour cell line growth inhibition, 48 h
Calls of active or inactive are those of the source. Rule as the data show it: active = GI50 up to about 1.1 µM and inactive = higher.
Give measured GI50 for each item. Keep answers brief.

{"compound": "COc1cc2c(cc1OC)C(=O)N(NC1=NCCN1)C2=O", "test_result": "> 100 µM (inactive)"}
{"compound": "O=c1/c(=C\\c2ccccc2)sc2n1C(c1ccccc1)C1(O)CCCCC1N=2 (stereo unspecified)", "test_result": "> 100 µM (inactive)"}
{"compound": "Cc1c2cc[n+](C)cc2c(C)c2c1[nH]c1ccccc12", "test_result": "6.41 µM (inactive)"}

# map each compound to its GI50
1. Cc1cccc(-c2nc3ccc([N+](=O)[O-])cc3c(=O)o2)c1
2. O=C1C=CC(=O)c2c1cc1ccccc1c2O
3. CC(C)(C)c1ccc(OCC(=O)O)c(Cl)c1
4. Cc1oc2c(Cl)cc(O)c(Cl)c2c2cccc1-2
5. COCC1OC(N2C(=O)NC(=O)[C@@H]3C=C4CCCCC4=C[C@@H]32)C(OC)C1OC (stereo partly specified)
6. N#CCc1nc(-c2ccccc2)n[nH]1

stdout:
64.3 µM (inactive)
3.18 µM (inactive)
> 100 µM (inactive)
> 100 µM (inactive)
> 100 µM (inactive)
> 100 µM (inactive)

Quick one: give me GI50 for each item below, same order please.
1. COc1ccc(/C=C/C(=O)c2cc(CN(C)C)c(O)c(CN(C)C)c2)cc1
2. CC12ON(P(=O)(c3ccccc3)c3ccccc3)C(C)(c3ccccc31)c1ccccc12

stdout:
["16.5 µM (inactive)", "> 100 µM (inactive)"]
